# assay.explanation: Pharmacokinetics after oral and IV administration
# Assay type: in vivo
# test.context: plasma; Mouse; IV Dose 1 mg/kg, PO Dose 3 mg/kg
endpoint.label: AUC(0-t) (ng·h/mL)
Answer with a number only, understood to be in ng·h/mL.

-- ask I have this molecule here, `Cc1cc(C)c(-c2ccc(NC(=O)[C@H](Cc3ccc(C(=O)NCCS(=O)(=O)O)cc3)c3ccc(-c4ccc(C(C)(C)C)cc4)cc3)cc2)c(C)c1` , and I need its recorded AUC(0-t).
-- reply 16300

----------
# assay.explanation: Single ascending dose study, pharmacokinetics
# Assay type: in vivo, human
# test.context: human, plasma, po, oral administration, NH and T2DM subjects; read-out: elimination half-life (converted)
endpoint.label: half-life

-- ask I have this compound here, Cc1cc(C)c(-c2ccc(NC(=O)[C@H](Cc3ccc(C(=O)NCCS(=O)(=O)O)cc3)c3ccc(-c4ccc(C(C)(C)C)cc4)cc3)cc2)c(C)c1 [IIIa] , and I need its recorded half-life.
-- reply ~50 h
